These entries and their values trace back to patent US9493490B1.

Target: ROCK1 (Homo sapiens (Human), UniProt Q13464)
Test: ROCK1 phosphorylation activity (Reaction Biology, radiometric)
Type: biochemical, H. sapiens
Conditions: 10 uM ATP; read-out: ROCK1 IC50
Sequence (Q13464 1-535): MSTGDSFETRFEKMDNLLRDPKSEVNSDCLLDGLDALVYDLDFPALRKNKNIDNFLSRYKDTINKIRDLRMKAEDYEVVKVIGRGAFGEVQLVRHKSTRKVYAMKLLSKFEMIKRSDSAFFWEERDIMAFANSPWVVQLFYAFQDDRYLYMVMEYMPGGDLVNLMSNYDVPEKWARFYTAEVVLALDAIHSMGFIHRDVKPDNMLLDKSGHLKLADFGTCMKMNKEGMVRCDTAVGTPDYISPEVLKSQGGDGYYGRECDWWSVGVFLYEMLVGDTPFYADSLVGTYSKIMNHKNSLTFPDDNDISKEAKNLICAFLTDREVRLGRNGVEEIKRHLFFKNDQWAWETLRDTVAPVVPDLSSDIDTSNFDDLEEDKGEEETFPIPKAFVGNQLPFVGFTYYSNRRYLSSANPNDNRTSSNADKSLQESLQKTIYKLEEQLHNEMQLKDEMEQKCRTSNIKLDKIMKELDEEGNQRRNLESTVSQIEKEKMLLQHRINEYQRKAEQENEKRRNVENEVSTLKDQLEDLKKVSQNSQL
# IC50 values compiled below
quantity_measured: IC50 (nM)

>>> val("Cc1c(Oc2cccc(CN)c2F)ccc2c1B(O)OC2")
250
>>> val("CC(C)c1c(Oc2ccc(CN)cc2Cl)ccc2c1B(O)OC2")
60

----------
Molecular target: ROCK1 (Homo sapiens (Human), UniProt Q13464)
Assay: Kinase binding panel (KINOMEscan), ROCK1
Details: table under Kinase Binding Panel
Protocol: Kinase inhibition potency was measured using KINOMEscan™ technology across 402 human kinases [Fabian et al., Nat Biotechnol. 2005 March; 23(3):329-36] (DiscoverRx, Inc., (Fremont, Calif.)). The assay is based on a competition binding assay which quantitatively measures the ability of a compound to compete with an immobilized, active-site directed ligand. […] 2008 January; 26(1):127-32; Fabian et al., Nat Biotechnol. […] The kinase concentration in the eluates was measured by qPCR.
Sequence (Q13464 whole entry): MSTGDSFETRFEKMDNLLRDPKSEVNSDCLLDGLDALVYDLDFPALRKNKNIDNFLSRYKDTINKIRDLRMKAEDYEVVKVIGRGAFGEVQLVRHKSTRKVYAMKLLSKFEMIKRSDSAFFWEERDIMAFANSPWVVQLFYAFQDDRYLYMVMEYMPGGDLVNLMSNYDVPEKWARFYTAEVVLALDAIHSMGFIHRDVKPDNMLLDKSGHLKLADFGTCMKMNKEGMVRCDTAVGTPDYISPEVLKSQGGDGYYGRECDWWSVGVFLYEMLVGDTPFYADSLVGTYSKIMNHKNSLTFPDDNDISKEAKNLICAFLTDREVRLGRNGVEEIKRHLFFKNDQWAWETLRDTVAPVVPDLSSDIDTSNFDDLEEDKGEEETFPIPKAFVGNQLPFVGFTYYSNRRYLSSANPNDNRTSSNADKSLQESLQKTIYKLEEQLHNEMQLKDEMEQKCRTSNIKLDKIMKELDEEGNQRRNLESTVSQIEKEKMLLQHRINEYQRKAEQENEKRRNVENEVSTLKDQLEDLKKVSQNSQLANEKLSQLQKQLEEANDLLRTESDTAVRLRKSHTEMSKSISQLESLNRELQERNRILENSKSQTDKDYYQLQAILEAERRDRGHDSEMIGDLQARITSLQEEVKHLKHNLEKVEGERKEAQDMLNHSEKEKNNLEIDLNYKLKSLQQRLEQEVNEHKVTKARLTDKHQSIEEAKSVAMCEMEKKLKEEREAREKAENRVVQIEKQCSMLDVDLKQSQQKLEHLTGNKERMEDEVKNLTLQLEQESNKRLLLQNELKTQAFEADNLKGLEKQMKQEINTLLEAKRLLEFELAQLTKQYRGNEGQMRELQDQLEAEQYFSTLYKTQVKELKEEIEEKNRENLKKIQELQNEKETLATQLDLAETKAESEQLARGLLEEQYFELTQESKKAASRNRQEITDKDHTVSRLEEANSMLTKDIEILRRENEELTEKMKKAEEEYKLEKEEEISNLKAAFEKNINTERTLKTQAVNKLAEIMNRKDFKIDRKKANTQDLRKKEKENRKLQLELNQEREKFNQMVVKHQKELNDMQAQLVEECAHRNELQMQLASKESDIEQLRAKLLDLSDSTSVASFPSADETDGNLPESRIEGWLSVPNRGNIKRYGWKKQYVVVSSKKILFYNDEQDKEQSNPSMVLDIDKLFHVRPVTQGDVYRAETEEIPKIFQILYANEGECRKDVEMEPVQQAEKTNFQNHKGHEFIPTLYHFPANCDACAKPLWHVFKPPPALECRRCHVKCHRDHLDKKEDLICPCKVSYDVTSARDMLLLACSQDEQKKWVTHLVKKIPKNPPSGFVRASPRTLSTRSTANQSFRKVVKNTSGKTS
pIC50: −log10 of the molar value.
# pIC50 values compiled below
quantity_measured: pIC50

>>> val("Cc1c(Oc2ccc(C(C)N)cc2F)ccc2c1B(O)OC2 (stereo not shown) [E]")
6.38
>>> val("CCc1c(Oc2ccc(CN)cc2Cl)ccc2c1B(O)OC2 [A]")
6.54
>>> val("Cc1c(Oc2ccc(CN)cc2F)ccc2c1B(O)OC2 [D]")
6.47
>>> val("Cc1c(Oc2cccc(CNC(=O)OC(C)(C)C)c2F)ccc2c1B(O)OC2 [L]")
6.14
>>> val("Cc1c(Oc2ccc(C(C)N)cc2F)ccc2c1B(O)OC2 (single isomer, unassigned) [G]")
6.77
>>> val("Cc1c(Oc2ccc(C(C)N)cc2F)ccc2c1B(O)OC2.Cl (single isomer, unassigned) [F]")
6.27
>>> val("Cc1c(Oc2cccc(CN)c2F)ccc2c1B(O)OC2 [M]")
6.61
>>> val("NCc1ccc(Oc2ccc3c(c2Cl)B(O)OC3)c(Cl)c1 [B]")
4.64
>>> val("CC(N)c1ccc(Oc2ccc3c(c2)B(O)OC3)c(F)c1.Cl (stereo not shown) [C]")
6.27
>>> val("CC(C)c1c(Oc2ccc(CN)cc2Cl)ccc2c1B(O)OC2 [N]")
7.22
